Target protein (sequence): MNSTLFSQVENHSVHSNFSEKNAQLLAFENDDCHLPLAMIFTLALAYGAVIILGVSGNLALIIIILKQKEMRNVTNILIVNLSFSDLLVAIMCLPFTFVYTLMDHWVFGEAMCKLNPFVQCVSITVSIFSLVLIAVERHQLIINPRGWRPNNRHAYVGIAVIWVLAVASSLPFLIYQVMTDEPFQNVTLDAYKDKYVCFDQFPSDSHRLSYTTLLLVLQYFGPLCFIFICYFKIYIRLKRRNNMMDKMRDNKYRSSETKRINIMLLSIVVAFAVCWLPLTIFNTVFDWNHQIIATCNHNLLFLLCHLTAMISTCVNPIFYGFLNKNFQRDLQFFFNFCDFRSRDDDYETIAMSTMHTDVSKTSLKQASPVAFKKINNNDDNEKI
assay_endpoint: pIC50
Reminder that pIC50 is minus the log10 of a molar concentration.

// recorded pIC50 for COC(=O)C1=C(C)N=C(C)C(C(=O)OC)C1c1cccc(NC(=O)NCCNC2CCN(c3cccc(Cl)c3)CC2)c1 (configuration not stated) : 8.10

Continuing:
The compound identified as COC(=O)C1=C(C)N=C(C)C(C(=O)OC)C1c1cccc(NC(=NC#N)NCCNC2CCN(c3ccccc3C#N)CC2)c1 (configuration not stated) registered its pIC50 at 8.52
